- test-details: Drug metabolism in Escherichia coli JM109 assessed as compound remaining after 1 hr by LC-MS analysis
- Assay type: ADME, organism-based
- applied-conditions: read-out: Stability
attribute-measured: remaining at 1 h (%)
Give a bare numeral; the unit % is implied.

INPUT: Please give the measured remaining at 1 h for this molecule: Cc1[nH]c2ccccc2c1CCNCc1ccc(/C=C/C(=O)NO)cc1 [PANOBINOSTAT]
OUTPUT: 55

====

IC50 for assorted molecules
- experimental-target: Histone deacetylase 1 (Homo sapiens)
- Sequence (Q13547 whole entry): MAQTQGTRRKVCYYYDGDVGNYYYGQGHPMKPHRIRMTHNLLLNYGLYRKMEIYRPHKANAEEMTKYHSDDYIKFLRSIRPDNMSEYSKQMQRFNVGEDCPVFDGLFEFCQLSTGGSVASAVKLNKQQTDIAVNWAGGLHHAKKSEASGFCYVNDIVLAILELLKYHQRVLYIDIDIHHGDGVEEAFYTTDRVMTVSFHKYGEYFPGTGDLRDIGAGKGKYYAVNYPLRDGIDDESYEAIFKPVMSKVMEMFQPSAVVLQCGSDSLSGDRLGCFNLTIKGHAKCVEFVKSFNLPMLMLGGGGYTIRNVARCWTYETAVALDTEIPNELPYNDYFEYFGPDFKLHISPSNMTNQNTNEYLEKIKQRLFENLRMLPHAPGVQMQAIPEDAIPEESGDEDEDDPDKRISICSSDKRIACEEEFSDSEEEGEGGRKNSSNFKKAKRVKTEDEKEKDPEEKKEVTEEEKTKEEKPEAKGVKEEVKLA
- test-details: Inhibition of HDAC1 (unknown origin) expressed in HEK293 cells using [3H]acetylated human histone H4 peptide as substrate by scintillation counting
Kindly answer with a numeric value in µM, unit omitted.

# count of solved cases: 3
Cc1[nH]c2cc(O)ccc2c1CCNCc1ccc(/C=C/C(N)=O)cc1; 4.6
C[C@@]12Nc3ccccc3[C@]1(O)CCN2Cc1ccc(/C=C/C(=O)NO)cc1; 0.14
Cc1[nH]c2ccccc2c1CCNCc1ccc(/C=C/C(N)=O)cc1; 11

Now turn to the next molecule.
INPUT: Fill in the blank: the reported IC50 of "C[C@@]12Nc3ccccc3[C@]1(O)CCN2Cc1ccc(/C=C/C(N)=O)cc1" is ____.
OUTPUT: 0.97

====

- experimental-target: CYP2C19 (Homo sapiens)
- Sequence (P33261 whole entry): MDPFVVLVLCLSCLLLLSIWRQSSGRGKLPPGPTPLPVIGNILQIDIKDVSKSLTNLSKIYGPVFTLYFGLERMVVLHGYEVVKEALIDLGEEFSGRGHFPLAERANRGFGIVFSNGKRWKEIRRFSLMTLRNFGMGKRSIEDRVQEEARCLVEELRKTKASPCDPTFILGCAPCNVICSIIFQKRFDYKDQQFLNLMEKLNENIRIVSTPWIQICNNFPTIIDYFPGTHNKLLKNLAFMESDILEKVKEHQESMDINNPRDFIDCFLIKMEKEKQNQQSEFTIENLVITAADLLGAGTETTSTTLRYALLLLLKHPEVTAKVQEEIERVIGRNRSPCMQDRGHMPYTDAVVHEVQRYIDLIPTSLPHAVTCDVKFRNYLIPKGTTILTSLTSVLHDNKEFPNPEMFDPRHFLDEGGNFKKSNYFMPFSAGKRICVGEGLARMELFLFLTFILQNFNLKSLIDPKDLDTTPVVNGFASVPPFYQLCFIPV
- test-details: Activity of recombinant human CYP2C19 expressed in Escherichia coli JM109 co-expressing P450 reductase assessed as enzyme-mediated drug metabolism measured as compound remaining after 1 hr by LC-MS analysis
- Type: ADME
- applied-conditions: read-out: Stability
attribute-measured: remaining at 1 h (%)
Please respond with the number in % and leave the unit unwritten.

INPUT: So what's the measured remaining at 1 h for this one? "Cc1[nH]c2ccccc2c1CCNCc1ccc(/C=C/C(=O)NO)cc1"
OUTPUT: 80

====

- experimental-target: Histone deacetylase 8 (Homo sapiens)
- Sequence (Q9BY41 whole entry): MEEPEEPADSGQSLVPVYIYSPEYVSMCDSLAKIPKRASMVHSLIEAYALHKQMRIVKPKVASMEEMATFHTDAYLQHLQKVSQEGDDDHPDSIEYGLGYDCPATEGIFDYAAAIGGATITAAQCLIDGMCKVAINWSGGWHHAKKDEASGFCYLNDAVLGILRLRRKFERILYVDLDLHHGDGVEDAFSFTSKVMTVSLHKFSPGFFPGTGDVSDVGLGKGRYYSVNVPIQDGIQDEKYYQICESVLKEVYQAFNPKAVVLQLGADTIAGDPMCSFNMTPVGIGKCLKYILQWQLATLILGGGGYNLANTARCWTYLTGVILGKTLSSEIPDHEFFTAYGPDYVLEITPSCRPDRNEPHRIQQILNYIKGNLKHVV
attribute-measured: IC50 (µM)
Respond numerically; units are µM and should not be typed.

C[C@@]12Nc3ccccc3[C@]1(O)CCN2Cc1ccc(/C=C/C(=O)NO)cc1; 0.92

For the next question, use this compound.
INPUT: Notebook entry, Histone deacetylase 8 (Homo sapiens) assay: IC50 of "Cc1[nH]c2ccccc2c1CCNCc1ccc(/C=C/C(N)=O)cc1" = ?
OUTPUT: 22

====

- experimental-target: UniProt P20813
- Sequence (P20813 whole entry): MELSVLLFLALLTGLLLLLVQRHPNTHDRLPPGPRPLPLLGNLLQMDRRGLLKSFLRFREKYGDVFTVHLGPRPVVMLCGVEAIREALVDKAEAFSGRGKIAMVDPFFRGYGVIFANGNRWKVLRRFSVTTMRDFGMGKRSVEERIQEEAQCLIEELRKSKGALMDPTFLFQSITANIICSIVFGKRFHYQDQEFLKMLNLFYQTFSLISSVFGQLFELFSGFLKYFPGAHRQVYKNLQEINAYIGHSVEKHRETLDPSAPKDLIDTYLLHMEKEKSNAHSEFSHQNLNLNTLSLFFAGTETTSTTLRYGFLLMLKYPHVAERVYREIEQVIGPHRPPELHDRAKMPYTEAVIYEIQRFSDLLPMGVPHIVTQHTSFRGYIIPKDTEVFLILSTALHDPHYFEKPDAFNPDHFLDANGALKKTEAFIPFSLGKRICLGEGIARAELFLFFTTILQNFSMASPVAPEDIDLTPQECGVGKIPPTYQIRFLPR
- test-details: Activity of recombinant human CYP2B6 expressed in Escherichia coli JM109 co-expressing P450 reductase assessed as enzyme-mediated drug metabolism measured as compound remaining after 1 hr by LC-MS analysis
- Format: ADME
- applied-conditions: read-out: Stability
attribute-measured: remaining at 1 h (%)
Supply the numeric figure in %, leaving out any unit text.

INPUT: remaining at 1 h lookup needed for "Cc1[nH]c2ccccc2c1CCNCc1ccc(/C=C/C(=O)NO)cc1" , thanks.
OUTPUT: 62

====

- experimental-target: UniProt:P08684
- Sequence (P08684 whole entry): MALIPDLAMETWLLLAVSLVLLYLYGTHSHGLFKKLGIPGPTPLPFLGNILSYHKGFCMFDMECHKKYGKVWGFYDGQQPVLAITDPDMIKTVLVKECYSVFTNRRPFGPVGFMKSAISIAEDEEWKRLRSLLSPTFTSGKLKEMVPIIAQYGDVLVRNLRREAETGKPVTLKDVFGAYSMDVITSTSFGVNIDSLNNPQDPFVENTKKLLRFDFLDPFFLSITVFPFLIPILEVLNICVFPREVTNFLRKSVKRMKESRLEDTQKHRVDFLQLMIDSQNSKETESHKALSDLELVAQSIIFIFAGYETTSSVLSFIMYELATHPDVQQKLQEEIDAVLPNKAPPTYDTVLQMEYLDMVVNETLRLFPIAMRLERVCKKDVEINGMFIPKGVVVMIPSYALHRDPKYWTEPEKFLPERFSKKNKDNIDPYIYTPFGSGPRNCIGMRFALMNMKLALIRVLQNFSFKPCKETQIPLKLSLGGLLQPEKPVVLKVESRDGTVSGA
- test-details: Activity of recombinant human CYP3A4 expressed in Escherichia coli JM109 co-expressing P450 reductase assessed as enzyme-mediated drug metabolism measured as compound remaining after 1 hr by LC-MS analysis in presence of cytochrome b5
- Assay type: ADME
- applied-conditions: read-out: Stability
attribute-measured: remaining at 1 h (%)
Answer in %, number only, no unit symbol.

INPUT: Requested read-out remaining at 1 h, target or system UniProt:P08684, entry "Cc1[nH]c2ccccc2c1CCNCc1ccc(/C=C/C(=O)NO)cc1"
OUTPUT: 45

====

- experimental-target: Histone deacetylase 4 (Homo sapiens)
- Sequence (P56524 whole entry): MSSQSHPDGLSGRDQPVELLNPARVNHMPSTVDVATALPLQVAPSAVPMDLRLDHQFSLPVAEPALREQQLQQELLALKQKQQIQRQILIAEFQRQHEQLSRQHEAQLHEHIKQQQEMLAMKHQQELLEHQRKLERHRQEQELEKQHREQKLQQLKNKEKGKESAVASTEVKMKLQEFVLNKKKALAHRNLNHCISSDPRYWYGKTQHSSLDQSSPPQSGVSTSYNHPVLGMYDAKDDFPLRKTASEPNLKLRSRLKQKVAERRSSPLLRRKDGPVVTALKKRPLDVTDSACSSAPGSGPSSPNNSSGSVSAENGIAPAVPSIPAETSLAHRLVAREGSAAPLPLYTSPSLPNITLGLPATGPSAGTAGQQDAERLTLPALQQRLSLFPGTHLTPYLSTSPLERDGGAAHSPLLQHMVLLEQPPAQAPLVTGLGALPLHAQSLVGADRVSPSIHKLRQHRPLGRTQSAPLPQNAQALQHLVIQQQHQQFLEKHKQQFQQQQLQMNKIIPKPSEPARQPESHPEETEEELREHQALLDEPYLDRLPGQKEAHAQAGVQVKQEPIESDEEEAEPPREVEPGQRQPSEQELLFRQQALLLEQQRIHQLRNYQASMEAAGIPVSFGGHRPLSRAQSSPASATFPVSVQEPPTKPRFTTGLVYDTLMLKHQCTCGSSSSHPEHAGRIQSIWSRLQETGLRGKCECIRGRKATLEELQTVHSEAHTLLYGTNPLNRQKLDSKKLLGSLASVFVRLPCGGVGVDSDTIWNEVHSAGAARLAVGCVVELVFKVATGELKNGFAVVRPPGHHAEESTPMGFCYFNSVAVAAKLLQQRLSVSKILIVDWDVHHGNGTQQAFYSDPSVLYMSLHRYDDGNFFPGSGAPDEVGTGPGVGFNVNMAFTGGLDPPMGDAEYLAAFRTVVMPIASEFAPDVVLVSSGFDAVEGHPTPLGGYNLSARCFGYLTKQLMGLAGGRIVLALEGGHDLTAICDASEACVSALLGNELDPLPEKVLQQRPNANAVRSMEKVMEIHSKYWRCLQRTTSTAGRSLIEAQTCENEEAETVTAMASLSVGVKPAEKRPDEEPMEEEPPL
- test-details: Inhibition of HDAC4 (unknown origin) expressed in HEK293 cells using [3H]acetylated human histone H4 peptide as substrate by scintillation counting
# pIC50 listing for each entry below
# pIC50 is unitless: minus log10 of the molar concentration; print number only

Here are 2 molecules together with their reported answers.
Cc1[nH]c2ccccc2c1CCNCc1ccc(/C=C/C(N)=O)cc1; 4.74
Cc1[nH]c2cc(O)ccc2c1CCNCc1ccc(/C=C/C(N)=O)cc1; 5.34

INPUT: Could you share which pIC50 value was measured for "C[C@@]12Nc3ccccc3[C@]1(O)CCN2Cc1ccc(/C=C/C(N)=O)cc1" ?
OUTPUT: 6.00

INPUT: Quick one: pIC50 of "C[C@@]12Nc3ccccc3[C@]1(O)CCN2Cc1ccc(/C=C/C(=O)NO)cc1" ?
OUTPUT: 6.64

====

- experimental-target: Protein deacetylase HDAC6 (Homo sapiens)
- Sequence (Q9UBN7 whole entry): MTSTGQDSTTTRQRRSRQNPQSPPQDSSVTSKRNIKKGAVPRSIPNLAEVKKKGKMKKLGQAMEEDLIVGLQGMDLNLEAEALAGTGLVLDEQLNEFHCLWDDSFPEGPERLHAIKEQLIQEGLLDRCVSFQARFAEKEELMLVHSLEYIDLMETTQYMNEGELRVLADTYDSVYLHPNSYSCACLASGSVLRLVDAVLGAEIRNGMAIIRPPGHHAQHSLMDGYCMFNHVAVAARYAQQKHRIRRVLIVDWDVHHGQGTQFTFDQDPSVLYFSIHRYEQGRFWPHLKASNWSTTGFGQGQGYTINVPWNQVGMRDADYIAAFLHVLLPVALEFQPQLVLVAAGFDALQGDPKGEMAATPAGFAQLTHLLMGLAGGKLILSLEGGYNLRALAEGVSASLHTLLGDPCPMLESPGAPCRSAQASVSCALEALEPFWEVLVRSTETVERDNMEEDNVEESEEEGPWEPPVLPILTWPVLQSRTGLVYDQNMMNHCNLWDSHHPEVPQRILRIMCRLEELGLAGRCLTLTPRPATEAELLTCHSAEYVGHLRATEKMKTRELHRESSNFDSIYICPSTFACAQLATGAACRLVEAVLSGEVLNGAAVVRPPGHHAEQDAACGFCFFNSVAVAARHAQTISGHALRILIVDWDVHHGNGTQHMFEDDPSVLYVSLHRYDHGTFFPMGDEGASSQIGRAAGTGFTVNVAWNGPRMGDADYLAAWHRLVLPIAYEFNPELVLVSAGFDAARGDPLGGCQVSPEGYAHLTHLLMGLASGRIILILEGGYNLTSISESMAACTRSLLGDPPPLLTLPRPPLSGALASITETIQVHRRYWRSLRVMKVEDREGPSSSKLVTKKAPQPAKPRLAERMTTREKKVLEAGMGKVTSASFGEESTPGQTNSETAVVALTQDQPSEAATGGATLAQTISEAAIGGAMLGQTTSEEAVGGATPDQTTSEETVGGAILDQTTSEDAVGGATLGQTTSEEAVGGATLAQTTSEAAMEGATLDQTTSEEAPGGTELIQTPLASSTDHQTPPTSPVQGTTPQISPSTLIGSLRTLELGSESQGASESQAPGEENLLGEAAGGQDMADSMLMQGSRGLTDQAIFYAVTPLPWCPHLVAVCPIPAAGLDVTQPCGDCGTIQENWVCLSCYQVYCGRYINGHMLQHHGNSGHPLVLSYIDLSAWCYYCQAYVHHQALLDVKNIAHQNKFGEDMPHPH
- test-details: Inhibition of HDAC6 (unknown origin) expressed in HEK293 cells using [3H]acetylated human histone H4 peptide as substrate by scintillation counting
attribute-measured: IC50 (nM)
Please give a number only; it is taken to be in nM.

Known results for compounds:
C[C@@]12Nc3ccccc3[C@]1(O)CCN2Cc1ccc(/C=C/C(=O)NO)cc1; 62
C[C@@]12Nc3ccccc3[C@]1(O)CCN2Cc1ccc(/C=C/C(N)=O)cc1; 1100

Now look at this one.
INPUT: What does the record list as IC50 for "Cc1[nH]c2cc(O)ccc2c1CCNCc1ccc(/C=C/C(N)=O)cc1" ?
OUTPUT: 4900

====

- experimental-target: UniProt P10635
- Sequence (P10635 whole entry): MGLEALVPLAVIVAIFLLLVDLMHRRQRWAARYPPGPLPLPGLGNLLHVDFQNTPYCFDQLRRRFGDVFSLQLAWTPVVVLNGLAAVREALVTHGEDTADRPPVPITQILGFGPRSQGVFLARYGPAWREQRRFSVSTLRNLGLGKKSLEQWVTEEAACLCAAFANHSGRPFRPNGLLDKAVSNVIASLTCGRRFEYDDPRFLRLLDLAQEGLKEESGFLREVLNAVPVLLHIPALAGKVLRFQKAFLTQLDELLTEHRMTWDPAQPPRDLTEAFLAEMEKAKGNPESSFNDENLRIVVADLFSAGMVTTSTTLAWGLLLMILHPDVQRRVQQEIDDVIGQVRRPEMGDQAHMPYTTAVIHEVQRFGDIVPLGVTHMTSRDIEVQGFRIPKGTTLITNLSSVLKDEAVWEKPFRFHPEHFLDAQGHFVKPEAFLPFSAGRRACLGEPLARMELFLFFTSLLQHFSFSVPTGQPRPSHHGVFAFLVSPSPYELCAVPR
- test-details: Activity of recombinant human CYP2D6 expressed in Escherichia coli JM109 co-expressing P450 reductase assessed as enzyme-mediated drug metabolism measured as compound remaining after 1 hr by LC-MS analysis
- Type: ADME
- applied-conditions: read-out: Stability
attribute-measured: remaining at 1 h (%)
The response must be a number in % with no trailing unit.

INPUT: What does the record list as remaining at 1 h for "Cc1[nH]c2ccccc2c1CCNCc1ccc(/C=C/C(=O)NO)cc1" ?
OUTPUT: 44

====

- experimental-target: UniProt:P05177
- Sequence (P05177 whole entry): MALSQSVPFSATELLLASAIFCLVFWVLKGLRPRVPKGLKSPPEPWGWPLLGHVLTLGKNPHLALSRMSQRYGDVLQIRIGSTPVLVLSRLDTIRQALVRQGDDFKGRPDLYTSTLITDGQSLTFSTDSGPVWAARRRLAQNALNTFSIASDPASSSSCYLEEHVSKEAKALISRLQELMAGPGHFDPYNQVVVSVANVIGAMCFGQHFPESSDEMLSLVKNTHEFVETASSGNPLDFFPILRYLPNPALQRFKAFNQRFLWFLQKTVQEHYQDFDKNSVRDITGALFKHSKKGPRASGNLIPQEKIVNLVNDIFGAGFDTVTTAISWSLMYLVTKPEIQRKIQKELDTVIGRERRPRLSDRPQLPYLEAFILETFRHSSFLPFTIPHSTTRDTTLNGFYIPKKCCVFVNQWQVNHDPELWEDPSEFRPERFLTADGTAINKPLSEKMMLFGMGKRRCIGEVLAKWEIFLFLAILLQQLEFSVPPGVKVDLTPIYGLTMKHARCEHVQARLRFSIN
- test-details: Activity of recombinant human CYP1A2 expressed in Escherichia coli JM109 co-expressing P450 reductase assessed as enzyme-mediated drug metabolism measured as compound remaining after 1 hr by LC-MS analysis
- Assay type: ADME
- applied-conditions: read-out: Stability
attribute-measured: remaining at 1 h (%)
Respond numerically; units are % and should not be typed.

INPUT: Consider the compound "Cc1[nH]c2ccccc2c1CCNCc1ccc(/C=C/C(=O)NO)cc1" and give its measured remaining at 1 h.
OUTPUT: 72
